species: Rattus norvegicus; assay: DrugMatrix - Regimen: Daily Repeat; assay type: toxicity, organism-based, Sprague-Dawley; design: regimen Daily Repeat, gender Male, age 6-8 weeks; settings: in vivo, po, 0 mg/kg, 72 h, tissue Blood, route oral GAVAGE, dose level Control, time 3 day, vehicle .5 % CMC
Assignment: determine reported ABSOLUTE MONOCYTE for the given molecules.
Give bare numbers, in CELLS/uL.

Before answering, review these 5 worked examples.
molecule	result-unit	ABSOLUTE MONOCYTE
C[C@]12CC[C@@H]3c4ccc(O)cc4CC[C@H]3[C@@H]1C[C@@H](O)[C@@H]2O [ESTRIOL]	CELLS/uL	180.83
COc1cc(OC)c(C(=O)CCCN2CCCC2)c(OC)c1 [BUFLOMEDIL]	CELLS/uL	85.33
NC(=O)N1c2ccccc2CC(=O)c2ccccc21 [OXCARBAZEPINE]	CELLS/uL	160.33
CCOc1nc2cccc(C(=O)O)c2n1Cc1ccc(-c2ccccc2-c2nnn[nH]2)cc1	CELLS/uL	50.17
C[C@@](Cc1ccc(O)c(O)c1)(NN)C(=O)O.O [CARBIDOPA]	CELLS/uL	0

For every item in the list below, what is its measured ABSOLUTE MONOCYTE?
1. COc1ccccc1[N+](=O)[O-] [2-NITROANISOLE]
2. C[C@H]1[C@H](NC(=O)/C(=N\OC(C)(C)C(=O)O)c2csc(N)n2)C(=O)N1S(=O)(=O)O [AZTREONAM]
3. CN(C)C(=O)C(CCN1CCC(O)(c2ccc(Cl)cc2)CC1)(c1ccccc1)c1ccccc1 [LOPERAMIDE]
4. CCC1=C(C)CN(C(=O)NCCc2ccc(S(=O)(=O)NC(=O)N[C@H]3CC[C@H](C)CC3)cc2)C1=O [GLIMEPIRIDE]
5. C[C@@H]1O[C@@H](O[C@H]2C[C@@H](O)[C@]3(CO)[C@H]4[C@H](O)C[C@]5(C)[C@@H](C6=CC(=O)OC6)CC[C@]5(O)[C@@H]4CC[C@]3(O)C2)[C@H](O)[C@H](O)[C@H]1O [OUABAIN]

**A:**
1: 1013.83; 2: 0; 3: 183.17; 4: 183.17; 5: 41

###

organism: Rattus norvegicus; test: DrugMatrix - Regimen: Daily Repeat; assay type: toxicity, organism-based, Sprague-Dawley; parameters: regimen Daily Repeat, gender Male, age 6-8 weeks; conditions: in vivo, po, 0 mg/kg, 120 h, tissue Plasma, route oral GAVAGE, dose level Control, time 5 day, vehicle 100 % WATER
assay-endpoint: PHOSPHORUS (mg/dL)
Give bare numbers, in mg/dL.

Before answering, review these 4 worked examples.
> print(dat)
                                   compound  assay.endpoint  reported.value
1                     NC12CC3CC(CC(C3)C1)C2      PHOSPHORUS           11.65
2  CCN(CC)CCNC(=O)c1ccc(N)cc1 [PROCAINAMIDE]      PHOSPHORUS            10.1
3  CNC1=Nc2ccc(Cl)cc2C(c2ccccc2)=[N+]([O-])C1 [CHLORDIAZEPOXIDE]      PHOSPHORUS           11.67
4  CCN(C(C)=O)c1cccc(-c2ccnc3c(C#N)cnn23)c1      PHOSPHORUS           11.65

**Q:** Supply measured PHOSPHORUS of CN(C)C(=O)Oc1cccc([N+](C)(C)C)c1.[Br-] [NEOSTIGMINE BROMIDE] in your reply.
**A:** 10.13

###

species: Rattus norvegicus; test: DrugMatrix - Regimen: Daily Repeat; assay type: toxicity, organism-based, Sprague-Dawley; parameters: regimen Daily Repeat, gender Male, age 6-8 weeks; settings: in vivo, po, 0 mg/kg, 72 h, tissue Plasma, route oral GAVAGE, dose level Control, time 3 day, vehicle 100 % WATER
assay-endpoint: GLUCOSE (mg/dL)
Numbers only, in mg/dL.

> print(dat)
                                   compound  assay.endpoint  reported.value
1  CN(C)C(=O)Oc1cccc([N+](C)(C)C)c1.[Br-] [NEOSTIGMINE BROMIDE]         GLUCOSE          152.67

For every item in the list below, what is its measured GLUCOSE?
1. C#Cc1cccc(Nc2ncnc3cc(OCCOC)c(OCCOC)cc23)c1
2. NC(=O)c1cccnc1 [NIACINAMIDE]
3. CCCC(C)C1(CC)C(=O)NC(=O)NC1=O (stereo not given)
4. CN(C)CCC=C1c2ccccc2CCc2ccccc21

**A:**
1: 153.33; 2: 178.5; 3: 152.67; 4: 154.5

###

species: Rattus norvegicus; experiment: DrugMatrix - Regimen: Daily Repeat; assay type: toxicity, organism-based, Sprague-Dawley; set-up: regimen Daily Repeat, gender Male, age 6-8 weeks; conditions: in vivo, po, 0 mg/kg, 72 h, tissue Plasma, route oral GAVAGE, dose level Control, time 3 day, vehicle 100 % WATER
Kind request: treat 6 G/DL as inclusive, so TOTAL PROTEIN at 6 G/DL or higher is Met, anything lower is Not met.

Examples from the recorded data:
> print(dat)
                                   compound  label.class
1  C#Cc1cccc(Nc2ncnc3cc(OCCOC)c(OCCOC)cc23)c1 [ERLOTINIB]          Met
2  CCN(CC)CCNC(=O)c1ccc(N)cc1 [PROCAINAMIDE]          Met
3              NC(=O)c1cccnc1 [NIACINAMIDE]      Not met
4  CNC1=Nc2ccc(Cl)cc2C(c2ccccc2)=[N+]([O-])C1 [CHLORDIAZEPOXIDE]      Not met

Continue with the next compound.
**Q:** Check if TOTAL PROTEIN >= 6 G/DL (inclusive). Item: CCN(CC)CCOC(=O)C1(C2CCCCC2)CCCCC1 [DICYCLOMINE]
**A:** Met

###

species: Rattus norvegicus; assay: DrugMatrix - Regimen: Daily Repeat; format: toxicity, organism-based, Sprague-Dawley; set-up: regimen Daily Repeat, gender Male, age 6-8 weeks; conditions: in vivo, po, 0 mg/kg, 72 h, tissue Blood, route oral GAVAGE, dose level Control, time 3 day, vehicle .5 % CMC
Assignment: determine reported ABSOLUTE LYMPHOCYTE for the given compounds.
Numbers only, in CELLS/uL.

Before answering, review these 5 worked examples.
compound	reported-value
C[C@]12CC[C@@H]3c4ccc(O)cc4CC[C@H]3[C@@H]1C[C@@H](O)[C@@H]2O	13776.5
C[C@H]1[C@H](NC(=O)/C(=N\OC(C)(C)C(=O)O)c2csc(N)n2)C(=O)N1S(=O)(=O)O	14453
C[C@@](Cc1ccc(O)c(O)c1)(NN)C(=O)O.O	14453
CCC1=C(C)CN(C(=O)NCCc2ccc(S(=O)(=O)NC(=O)N[C@H]3CC[C@H](C)CC3)cc2)C1=O [GLIMEPIRIDE]	12191.17
NC(=O)N1c2ccccc2CC(=O)c2ccccc21 [OXCARBAZEPINE]	12269.67

For every item in the list below, what is its measured ABSOLUTE LYMPHOCYTE?
1. COc1cc(OC)c(C(=O)CCCN2CCCC2)c(OC)c1
2. C[C@@H]1O[C@@H](O[C@H]2C[C@@H](O)[C@]3(CO)[C@H]4[C@H](O)C[C@]5(C)[C@@H](C6=CC(=O)OC6)CC[C@]5(O)[C@@H]4CC[C@]3(O)C2)[C@H](O)[C@H](O)[C@H]1O
3. CN(C)C(=O)C(CCN1CCC(O)(c2ccc(Cl)cc2)CC1)(c1ccccc1)c1ccccc1 [LOPERAMIDE]
4. CCOc1nc2cccc(C(=O)O)c2n1Cc1ccc(-c2ccccc2-c2nnn[nH]2)cc1
5. COc1ccccc1[N+](=O)[O-]

**A:**
1: 10913.67; 2: 10030.67; 3: 12191.17; 4: 9125.17; 5: 13152.5

###

species: Rattus norvegicus; experiment: DrugMatrix - Regimen: Daily Repeat; assay type: toxicity, organism-based, Sprague-Dawley; parameters: regimen Daily Repeat, gender Male, age 6-8 weeks; settings: in vivo, po, 0 mg/kg, 72 h, tissue Blood, route oral GAVAGE, dose level Control, time 3 day, […]
assay-endpoint: MEAN CORPUSCULAR HEMOGLOBIN CONCENTRATION (G/DL)
One number for each entry, in G/DL.

Before answering, review these 8 worked examples.
> print(dat)
                                   compound  reported.value
1  CCc1ccc(CCOc2ccc(CC3SC(=O)NC3=O)cc2)nc1 (centres undefined)           39.18
2           Cc1ccc(C)c(OCCCC(C)(C)C(=O)O)c1           39.77
3      O=c1c(-c2ccc(O)cc2)coc2cc(O)cc(O)c12           39.85
4      ClC(Cl)(Cl)Cl [CARBON TETRACHLORIDE]           37.05
5  CS(=O)(=O)Nc1ccc([N+](=O)[O-])cc1Oc1ccccc1 [NIMESULIDE]           39.83
6  CCCCC(=O)N(Cc1ccc(-c2ccccc2-c2nnn[nH]2)cc1)[C@H](C(=O)O)C(C)C           39.05
7  CC(C)c1c(C(=O)Nc2ccccc2)c(-c2ccccc2)c(-c2ccc(F)cc2)n1CC[C@@H](O)C[C@@H](O)CC(=O)O           39.85
8                     CC(=O)Oc1ccccc1C(=O)O           39.62

Next compound, please.
**Q:** Supply measured MEAN CORPUSCULAR HEMOGLOBIN CONCENTRATION of c1ccoc1 in your reply.
**A:** 32.23

// data source = ChEMBL document CHEMBL3885881
